# Test System: human KDR enzyme (Homo sapiens)
# Construct: The cytoplasmic domain of the human KDR enzyme; GST; made in house; host or cells: SF21 insect cells (baculovirus)
# Sequence (P35968 786-1356 limits assumed): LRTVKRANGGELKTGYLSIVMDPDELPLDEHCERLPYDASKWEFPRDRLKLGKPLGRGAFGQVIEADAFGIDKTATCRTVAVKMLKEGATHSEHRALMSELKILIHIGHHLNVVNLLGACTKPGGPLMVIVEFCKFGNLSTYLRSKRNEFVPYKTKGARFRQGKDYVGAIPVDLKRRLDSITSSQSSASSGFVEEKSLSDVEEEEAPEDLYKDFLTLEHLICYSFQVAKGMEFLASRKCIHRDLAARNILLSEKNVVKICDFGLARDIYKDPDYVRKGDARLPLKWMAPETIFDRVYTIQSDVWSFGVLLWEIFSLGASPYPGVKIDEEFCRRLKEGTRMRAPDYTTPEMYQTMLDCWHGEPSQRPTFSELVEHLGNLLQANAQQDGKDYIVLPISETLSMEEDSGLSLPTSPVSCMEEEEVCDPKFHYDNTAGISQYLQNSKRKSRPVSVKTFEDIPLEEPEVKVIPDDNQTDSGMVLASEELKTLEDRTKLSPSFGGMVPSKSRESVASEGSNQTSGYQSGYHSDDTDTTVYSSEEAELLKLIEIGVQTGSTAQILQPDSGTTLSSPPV
# Measurement Description: KDR substrate (PLCγ) phosphorylation, scintillation assay
# Format: biochemical
# Study Conditions: 10 μM
Readout: KDR % inhib at 10 μM (%)

Check out these entries, answers already filled in.
CS(=O)(=O)c1ccccc1S(=O)(=O)Nc1ccc2[nH]nc(-c3cccs3)c2c1 [Example 174]; 53
CS(=O)(=O)c1ccccc1S(=O)(=O)Nc1ccc2[nH]nc(-c3cccs3)c2c1 [Example 50]; 80

[P] CS(=O)(=O)c1ccccc1S(=O)(=O)Nc1ccc2[nH]nc(-c3ccc(O)cc3)c2c1
[Q] CC(=O)Nc1ccc(S(=O)(=O)Nc2ccc3[nH]nc(-c4ccccc4)c3c2)cc1
Inquiry: Look at P and Q . Which one has the lower recorded KDR % inhib at 10 μM number? Indicate which entry you chose by stating its label.
Reply text: Q
